- System: SW480
- MEASUREMENT_DESCRIPTION: cell viability (CellTiter-Glo) relative to plate median (fraction of plate median); higher = more viable cells
- STATED_CONDITIONS: 5 µM; treatment time 24 h; reporter: 7TFP
METRIC_NAME: cell viability
Answers are plain numbers.

Below are worked cases with known answers.
# COMPOUND, METRIC_NAME, RECORDED_RESULT
data = [
    ("CC(=O)O[C@@H]1CC2C(C)(C)C(=O)C3OC3[C@]2(C)C2CC[C@@]3(C)[C@H](c4ccoc4)OC(=O)C4OC43[C@@]21C (stereo partly specified)", "cell viability", 1.02),
    ("CCOC(=O)c1ccc(N)cc1", "cell viability", 1),
]

Required: cell viability, one value per compound below.
1. CC(C)C[C@H]1NC(=O)[C@@H](NC(=O)c2ncccc2O)[C@@H](C)OC(=O)[C@H](c2ccccc2)N(C)C(=O)[C@H](C)NC(=O)[C@H]([C@@H](C)C(C)C)N(C)C(=O)CN(C)C(=O)[C@H]2C[C@@H](O)CN2C1=O
2. CCCCCCCCCCCCCCCC(=O)OC[C@@H](NC(=O)C(Cl)Cl)[C@H](O)c1ccc([N+](=O)[O-])cc1
3. COC1=CC(=O)C(O)=C/C1=C\C=C\c1ccccc1
4. CC1CC(OC(=O)C(O)c2ccccc2)CC(C)(C)N1C (stereo unspecified)

Result string:
[0.971, 1.01, 1, 1.02]

###

- System: DLD1
- MEASUREMENT_DESCRIPTION: cell viability (CellTiter-Glo) relative to plate median (fraction of plate median); higher = more viable cells
- STATED_CONDITIONS: 5 µM; treatment time 24 h; reporter: 7TFP
Can you tell me cell viability for the items I'm about to list?
Give bare numbers.

Take a look at these entries with their results.
# COMPOUND, TEST_TARGET, METRIC_NAME, RECORDED_RESULT
data = [
    ("CNCC[C@H](Oc1cccc2ccccc12)c1cccs1", "DLD1", "cell viability", 1.03),
    ("O=C(O)c1cc(=O)c(O)c2c(O)c(O)c(O)cc2c1", "DLD1", "cell viability", 0.948),
    ("C#C[C@]1(O)CC[C@H]2[C@@H]3CCC4=CCCC[C@@H]4[C@H]3CC[C@@]21C", "DLD1", "cell viability", 1),
    ("CCCCCCCCCCCCCCC(C(=O)O)C(O)(CC(=O)OC)C(=O)O (stereo unspecified)", "DLD1", "cell viability", 0.955),
    ("CC(C)=CCc1c2c(c(O)c3c(=O)c(O)c(-c4ccccc4)oc13)C=CC(C)(C)O2", "DLD1", "cell viability", 1.03),
]

Query string: Recorded cell viability for `CC1(C)[C@@H](O[C@H]2O[C@H](C(=O)O)[C@@H](O)[C@H](O)[C@H]2O[C@@H]2O[C@H](C(=O)O)[C@@H](O)[C@H](O)[C@H]2O)CC[C@]2(C)[C@H]3C(=O)C=C4[C@@H]5C[C@@](C)(C(=O)O)CC[C@]5(C)CC[C@@]4(C)[C@]3(C)CC[C@@H]12` , please?
Result string: 1.04

###

For each entry below, report its cell viability value.
- Tested on: HCT116
- MEASUREMENT_DESCRIPTION: cell viability (CellTiter-Glo) relative to plate median (fraction of plate median); higher = more viable cells
- STATED_CONDITIONS: 5 µM; treatment time 24 h; reporter: TCF4/Wnt
Answers are plain numbers.

Please review the following examples before continuing.
# COMPOUND, TEST_TARGET, METRIC_NAME, RECORDED_RESULT
records = [
    ("OCc1ccccc1O[C@@H]1O[C@H](CO)[C@@H](O)[C@H](O)[C@H]1O", "HCT116", "cell viability", 0.971),
    ("CCCc1nc(C)c2c(O)nc(-c3cc(S(=O)(=O)N4CCN(CC)CC4)ccc3OCC)nn12", "HCT116", "cell viability", 1.02),
    ("O=C(NC(Cc1cc(=O)[nH]c2ccccc12)C(=O)O)c1ccc(Cl)cc1 (stereo not given)", "HCT116", "cell viability", 0.975),
    ("Cc1cccc(Nc2cc(Cl)nc(SCC(=O)O)n2)c1C", "HCT116", "cell viability", 0.999),
]

Query string: Item CC(=O)OCC(OC(C)=O)C(OC(C)=O)C(OC(C)=O)C(OC(C)=O)C(COC(C)=O)OC(C)=O (stereo not given) has what recorded cell viability?
Result string: 1
